- ASSAYED_TARGET: T1, recombinant mouse DLL4 (mouse, UniProt Q9JI71 27-532)
- T1 construct: extracellular domain; also called rmDLL4; mDLL4; not shown: C-terminal His tag
- T1 sequence (Q9JI71 27-532): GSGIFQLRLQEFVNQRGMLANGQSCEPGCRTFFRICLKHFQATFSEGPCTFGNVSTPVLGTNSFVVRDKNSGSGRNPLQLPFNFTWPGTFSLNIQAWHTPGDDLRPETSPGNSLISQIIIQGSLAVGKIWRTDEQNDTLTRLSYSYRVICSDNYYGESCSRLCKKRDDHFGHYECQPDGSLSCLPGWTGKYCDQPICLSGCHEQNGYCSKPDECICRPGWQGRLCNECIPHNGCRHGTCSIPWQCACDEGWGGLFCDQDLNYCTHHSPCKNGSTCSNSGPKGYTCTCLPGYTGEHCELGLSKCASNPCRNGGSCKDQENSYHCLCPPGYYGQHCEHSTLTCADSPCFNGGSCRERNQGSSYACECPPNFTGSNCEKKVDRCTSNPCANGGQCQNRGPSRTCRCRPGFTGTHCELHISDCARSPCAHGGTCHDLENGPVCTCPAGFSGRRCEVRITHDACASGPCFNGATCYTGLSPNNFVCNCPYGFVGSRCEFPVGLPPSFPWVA
- TEST_NAME: ProteOn off-rate screen, periplasmic extract, mDLL4 on chip
ENDPOINT_LABEL: fold (off-rate improvement over DLLBII101G08) (fold)

>>> test_value("DLLBII129E03 (VHH) VHH: EVQLVESGGGLVQAGGSLRLSCAASGRTFSSYAMAWFRQAPGKDREYVAAIRWSGGTAYYADSVQGRFTISRDNAKNTVYLQMNSLKPEDTAVYYCANRAPDTRLAPYLYDYWGQGTQVTVSS")
18
>>> test_value("DLLBII101G08 (VHH, also called 101G8; DLLBII101G8; not shown: C-terminal c-myc tag and His6 tag) VHH: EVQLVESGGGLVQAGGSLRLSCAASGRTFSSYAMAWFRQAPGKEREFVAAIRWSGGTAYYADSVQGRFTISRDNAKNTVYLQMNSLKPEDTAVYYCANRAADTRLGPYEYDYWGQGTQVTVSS")
1
>>> test_value("DLLBII130F06 (VHH, not shown: C-terminal c-myc tag and (His)6 tag) VHH: EVQLVESGGGLVQAGGSLRLSCAASGRTFSSYAMAWYRQAPGKEREYVAAIRWSGGTAYYADSVQGRFTISRDNAKNTVYLQMNSLKPEDTAVYYCANRAPDTRLAPYEYDYWGQGTQVTVSS")
19
>>> test_value("DLLBII129H07 (VHH, not shown: C-terminal c-myc tag and (His)6 tag) VHH: EVQLVESGGGLVQAGGSLRLSCAASGRTFSSYAMAWYRQAPGKEREYVAAIRWSGGTAYYADSVQGRFTISRDNAKNTVYLQMNSLKPEDTAVYYCANRAPDTRLEPYEYDYWGQGTQVTVSS")
27
>>> test_value("DLLBII129B05 (VHH, not shown: C-terminal c-myc tag and (His)6 tag) VHH: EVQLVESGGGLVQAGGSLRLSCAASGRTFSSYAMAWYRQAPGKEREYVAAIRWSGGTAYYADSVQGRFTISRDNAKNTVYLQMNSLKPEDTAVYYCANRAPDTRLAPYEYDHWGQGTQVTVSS")
20
>>> test_value("DLLBII130B04 (VHH) VHH: EVQLVESGGGLVQAGGSLRLSCAASGRTFSSYAMAWFRQAPGKEREYVAAIRWSGGTAYYADSVQGRFTISRDNAKNTVYLQMNSLKPEDTAVYYCANRAPDTRLRPYLYDHWGQGTQVTVSS")
17
>>> test_value("DLLBII129B02 (VHH) VHH: EVQLVESGGGLVQAGGSLSLSCAASGRTFSSYAMAWYRQAPGKEREYVAAIRWSGGTAYYADSVQGRFTISRDNAKNTVYLQMNSLKPEDTAVYYCANRAPDTRLEPYEYDHWGQGTQVTVSS")
26
>>> test_value("DLLBII129E07 (VHH) VHH: EVQLVESGGGLVQAGGSLRLSCSASGRTFSSYAMAWYRQAPGKEREYVAAIRWSGGTAYYPDSVQGRFTISRDNAKNTVYLQMNSLKPEDTAVYYCANRAPDTRLAPYEYDHWGQGTQVTVSS")
24
